# System: brains, heart, liver, muscle, and DRG of the NHPs
# assay explanation: Maturation of TTM-001 and TTM-002 capsids, NGS enrichment in NHP tissues
# Assay type: in vivo
# condition details: NHP muscle; relative to AAV9 control
Attribute: Fold Enrichment relative to AAV9, Muscle (NHP)
Just the number please, in fold, no unit attached.

For orientation, consider the following solved cases.
## Task Give Fold Enrichment relative to AAV9, Muscle (NHP) (brains, heart, liver, muscle, and DRG of the NHPs) of the following sequence: KTINGSGSPHSKLQKQQT
## Result 1.071

## Task Give Fold Enrichment relative to AAV9, Muscle (NHP) (brains, heart, liver, muscle, and DRG of the NHPs) of the following sequence: KTEQTSGSPHSKAQNQQT
## Result 0.000

## Task Give Fold Enrichment relative to AAV9, Muscle (NHP) (brains, heart, liver, muscle, and DRG of the NHPs) of the following sequence: KNSLGSGSPHSKAQNQQT
## Result 0.000

--- query ---
## Task Give Fold Enrichment relative to AAV9, Muscle (NHP) (brains, heart, liver, muscle, and DRG of the NHPs) of the following sequence: KSDIGSGSPHSKAQNQQT
## Result 0.000

* * *

# Test system: brains, heart, liver, muscle, and DRG of the NHPs
# assay explanation: Maturation of TTM-001 and TTM-002 capsids, NGS enrichment in NHP tissues
# Format: in vivo
# condition details: NHP heart; relative to AAV9 control
measure name: Fold Enrichment relative to AAV9, Heart (NHP)

## Task Give Fold Enrichment relative to AAV9, Heart (NHP) (brains, heart, liver, muscle, and DRG of the NHPs) of the following sequence: KTVNGSGSPHSKAQDKQT
## Result 0.000 fold

## Task Give Fold Enrichment relative to AAV9, Heart (NHP) (brains, heart, liver, muscle, and DRG of the NHPs) of the following sequence: KTSNGSGSPHSKAQNQST
## Result 0.000 fold

## Task Give Fold Enrichment relative to AAV9, Heart (NHP) (brains, heart, liver, muscle, and DRG of the NHPs) of the following sequence: KTINGSGSPHSKAQGAIT
## Result 0.000 fold

## Task Give Fold Enrichment relative to AAV9, Heart (NHP) (brains, heart, liver, muscle, and DRG of the NHPs) of the following sequence: KTINGSGSPHSKAQVGHT
## Result 0.000 fold

## Task Give Fold Enrichment relative to AAV9, Heart (NHP) (brains, heart, liver, muscle, and DRG of the NHPs) of the following sequence: KTINGSGSPHSKAQERST
## Result 0.011 fold

--- query ---
## Task Give Fold Enrichment relative to AAV9, Heart (NHP) (brains, heart, liver, muscle, and DRG of the NHPs) of the following sequence: KAINGSGSPHSKAQDKQT
## Result 0.000 fold

* * *

# Test system: brains, heart, liver, muscle, and DRG of the NHPs
# assay explanation: Maturation of TTM-001 and TTM-002 capsids, NGS enrichment in NHP tissues
# Assay type: in vivo
# condition details: NGS fold-enrichment, muscle of NHPs, relative to AAV9 control
Attribute: Fold Enrichment relative to AAV9, Muscle (NHP)
Just the number please, in fold, no unit attached.

## Task I have this sequence here, KTINGSGSPHSKAQGQQA , and I need its recorded Fold Enrichment relative to AAV9, Muscle (NHP).
## Result 0.000

Others:
## Task I have this sequence here, KTDLKSGSPHSKAQNQQT , and I need its recorded Fold Enrichment relative to AAV9, Muscle (NHP).
## Result 0.012

## Task I have this sequence here, KAEHGSGSPHSKAQNQQT , and I need its recorded Fold Enrichment relative to AAV9, Muscle (NHP).
## Result 0.000

## Task I have this sequence here, KTINGSGSPHSKAHNQQR , and I need its recorded Fold Enrichment relative to AAV9, Muscle (NHP).
## Result 0.047
